- assay.name: in vivo
- Format: in vivo, mice
- test.settings: Abcc2−/− knockout (parental strain FVB), mouse, in vivo, iv, 0.5 mg/kg
Numbered stars: 1 amine (or outer) side, 2 acyl side, 3 side chain; on linkers, the order of the positions; unused ones are H or OH. Bridge positions count the residues as written; N and C are the ends. Square brackets hold non-standard residues; d marks the D form. Peptide text beside a SMILES is read from it. I, II: the chains in the order shown. Actinocin(9to1) = Cc1c2oc3c(C)ccc(C(=O)[*:1])c3nc-2c(C(=O)[*:2])c(N)c1=O; NMeV = CN[C@H](C(=O)O)C(C)C; Sar = CNCC(=O)O
readout.kind: Cmax (ng/mL)
Report the figure in ng/mL without appending any unit label.

Return the recorded Cmax value; entry: Cc1c2oc3c(C)ccc(C(=O)N[C@@H]4C(=O)N[C@H](C(C)C)C(=O)N5CCC[C@H]5C(=O)N(C)CC(=O)N(C)[C@@H](C(C)C)C(=O)O[C@@H]4C)c3nc-2c(C(=O)N[C@@H]2C(=O)N[C@H](C(C)C)C(=O)N3CCC[C@H]3C(=O)N(C)CC(=O)N(C)[C@@H](C(C)C)C(=O)O[C@@H]2C)c(N)c1=O [Act D, actinomycin D] (I: T[dV]P[Sar][NMeV] / II: T[dV]P[Sar][NMeV]; ester I:1-I:C, II:1-II:C; linker I:N-II:N via Actinocin(9to1))
48

###

- assay.name: in vivo
- Assay type: in vivo, mice
- test.settings: Abcc2−/− knockout (FVB background), mouse, in vivo, iv, 0.5 mg/kg
Numbered stars: 1 amine (or outer) side, 2 acyl side, 3 side chain; on linkers, the order of the positions; unused ones are H or OH. Bridge positions count the residues as written; N and C are the ends. Square brackets hold non-standard residues; d marks the D form. Peptide text beside a SMILES is read from it. I, II: the chains in the order shown. Actinocin(9to1) = Cc1c2oc3c(C)ccc(C(=O)[*:1])c3nc-2c(C(=O)[*:2])c(N)c1=O; NMeV = CN[C@H](C(=O)O)C(C)C; Sar = CNCC(=O)O
readout.kind: half-life (h)
Report the figure in h without appending any unit label.

Return the recorded half-life value; entry: Cc1c2oc3c(C)ccc(C(=O)N[C@@H]4C(=O)N[C@H](C(C)C)C(=O)N5CCC[C@H]5C(=O)N(C)CC(=O)N(C)[C@@H](C(C)C)C(=O)O[C@@H]4C)c3nc-2c(C(=O)N[C@@H]2C(=O)N[C@H](C(C)C)C(=O)N3CCC[C@H]3C(=O)N(C)CC(=O)N(C)[C@@H](C(C)C)C(=O)O[C@@H]2C)c(N)c1=O [Act D, actinomycin D] (I: T[dV]P[Sar][NMeV] / II: T[dV]P[Sar][NMeV]; ester I:1-I:C, II:1-II:C; linker I:N-II:N via Actinocin(9to1))
2.46

###

- System: ABCG2 (BCRP)
- assay.name: Growth inhibition
- Format: cell-based, canine
- test.settings: dog, MDCKII cells transfected with human ABCG2 (BCRP)
Numbered stars: 1 amine (or outer) side, 2 acyl side, 3 side chain; on linkers, the order of the positions; unused ones are H or OH. Bridge positions count the residues as written; N and C are the ends. Square brackets hold non-standard residues; d marks the D form. Peptide text beside a SMILES is read from it. I, II: the chains in the order shown. Actinocin(9to1) = Cc1c2oc3c(C)ccc(C(=O)[*:1])c3nc-2c(C(=O)[*:2])c(N)c1=O; NMeV = CN[C@H](C(=O)O)C(C)C; Sar = CNCC(=O)O
readout.kind: GI50 at 72 h (nM)
Report the figure in nM without appending any unit label.

Return the recorded GI50 at 72 h value; entry: Cc1c2oc3c(C)ccc(C(=O)N[C@@H]4C(=O)N[C@H](C(C)C)C(=O)N5CCC[C@H]5C(=O)N(C)CC(=O)N(C)[C@@H](C(C)C)C(=O)O[C@@H]4C)c3nc-2c(C(=O)N[C@@H]2C(=O)N[C@H](C(C)C)C(=O)N3CCC[C@H]3C(=O)N(C)CC(=O)N(C)[C@@H](C(C)C)C(=O)O[C@@H]2C)c(N)c1=O [Act D, actinomycin D] (I: T[dV]P[Sar][NMeV] / II: T[dV]P[Sar][NMeV]; ester I:1-I:C, II:1-II:C; linker I:N-II:N via Actinocin(9to1))
14

###

- assay.name: in vivo
- Type: in vivo, mice
- test.settings: FVB (wild type), mouse, in vivo, iv, 0.5 mg/kg
Numbered stars: 1 amine (or outer) side, 2 acyl side, 3 side chain; on linkers, the order of the positions; unused ones are H or OH. Bridge positions count the residues as written; N and C are the ends. Square brackets hold non-standard residues; d marks the D form. Peptide text beside a SMILES is read from it. I, II: the chains in the order shown. Actinocin(9to1) = Cc1c2oc3c(C)ccc(C(=O)[*:1])c3nc-2c(C(=O)[*:2])c(N)c1=O; NMeV = CN[C@H](C(=O)O)C(C)C; Sar = CNCC(=O)O
readout.kind: Tmax (min)
Report the figure in min without appending any unit label.

Return the recorded Tmax value; entry: Cc1c2oc3c(C)ccc(C(=O)N[C@@H]4C(=O)N[C@H](C(C)C)C(=O)N5CCC[C@H]5C(=O)N(C)CC(=O)N(C)[C@@H](C(C)C)C(=O)O[C@@H]4C)c3nc-2c(C(=O)N[C@@H]2C(=O)N[C@H](C(C)C)C(=O)N3CCC[C@H]3C(=O)N(C)CC(=O)N(C)[C@@H](C(C)C)C(=O)O[C@@H]2C)c(N)c1=O [Act D, actinomycin D] (I: T[dV]P[Sar][NMeV] / II: T[dV]P[Sar][NMeV]; ester I:1-I:C, II:1-II:C; linker I:N-II:N via Actinocin(9to1))
15

###

- assay.name: in vivo
- Assay type: in vivo, mice
- test.settings: Abcb1a/1b−/− knockout (parental strain FVB), mouse, in vivo, iv, 0.5 mg/kg
Numbered stars: 1 amine (or outer) side, 2 acyl side, 3 side chain; on linkers, the order of the positions; unused ones are H or OH. Bridge positions count the residues as written; N and C are the ends. Square brackets hold non-standard residues; d marks the D form. Peptide text beside a SMILES is read from it. I, II: the chains in the order shown. Actinocin(9to1) = Cc1c2oc3c(C)ccc(C(=O)[*:1])c3nc-2c(C(=O)[*:2])c(N)c1=O; NMeV = CN[C@H](C(=O)O)C(C)C; Sar = CNCC(=O)O
readout.kind: Tmax

Return the recorded Tmax value; entry: Cc1c2oc3c(C)ccc(C(=O)N[C@@H]4C(=O)N[C@H](C(C)C)C(=O)N5CCC[C@H]5C(=O)N(C)CC(=O)N(C)[C@@H](C(C)C)C(=O)O[C@@H]4C)c3nc-2c(C(=O)N[C@@H]2C(=O)N[C@H](C(C)C)C(=O)N3CCC[C@H]3C(=O)N(C)CC(=O)N(C)[C@@H](C(C)C)C(=O)O[C@@H]2C)c(N)c1=O [Act D, actinomycin D] (I: T[dV]P[Sar][NMeV] / II: T[dV]P[Sar][NMeV]; ester I:1-I:C, II:1-II:C; linker I:N-II:N via Actinocin(9to1))
15 min

###

- assay.name: in vivo
- Type: in vivo, mice
- test.settings: Abcc2−/− knockout (parental strain FVB), mouse, in vivo, iv, 0.5 mg/kg
Numbered stars: 1 amine (or outer) side, 2 acyl side, 3 side chain; on linkers, the order of the positions; unused ones are H or OH. Bridge positions count the residues as written; N and C are the ends. Square brackets hold non-standard residues; d marks the D form. Peptide text beside a SMILES is read from it. I, II: the chains in the order shown. Actinocin(9to1) = Cc1c2oc3c(C)ccc(C(=O)[*:1])c3nc-2c(C(=O)[*:2])c(N)c1=O; NMeV = CN[C@H](C(=O)O)C(C)C; Sar = CNCC(=O)O
readout.kind: Tmax (min)
Report the figure in min without appending any unit label.

Return the recorded Tmax value; entry: Cc1c2oc3c(C)ccc(C(=O)N[C@@H]4C(=O)N[C@H](C(C)C)C(=O)N5CCC[C@H]5C(=O)N(C)CC(=O)N(C)[C@@H](C(C)C)C(=O)O[C@@H]4C)c3nc-2c(C(=O)N[C@@H]2C(=O)N[C@H](C(C)C)C(=O)N3CCC[C@H]3C(=O)N(C)CC(=O)N(C)[C@@H](C(C)C)C(=O)O[C@@H]2C)c(N)c1=O [Act D, actinomycin D] (I: T[dV]P[Sar][NMeV] / II: T[dV]P[Sar][NMeV]; ester I:1-I:C, II:1-II:C; linker I:N-II:N via Actinocin(9to1))
15

Values compiled from paper PMC3545186.
